- Assay Name: fission yeast growth modulation, primary screen, strain 972, OD600, 24 h, no modulator (AID 1090);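 note: basal condition with compound alone and no growth modifier present; test concentration not given here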
- Test Conditions: S. pombe 972 growth, higher = more signal, called active from +8 up or from −8 down
Measured Endpoint: z-score
Lab note: jot down the number only; don't add units.

Worked examples follow.
molecule="[N-]=[N+]=Nc1ccccc1C[C@@]1(C(=O)NCC(O)CO)N=C(c2ccc(OCCCO)cc2)O[C@@H]1c1ccccc1N=[N+]=[N-] (some centres not stated)" numeric_result=0.0801
molecule="CN1C2C=C(c3ccc(CO)cc3)C(C3C(=O)N(C(N)=O)C(=O)C32)C1C1CC1 (configuration not stated)" numeric_result=-0.257
molecule="CS(=O)(=O)CCOC(=O)C1=CC(CCCO)=CC(C2CC2)N(Cc2sc3ccccc3c2Cl)C=C1C(=O)OCCS(C)(=O)=O (configuration not stated)" numeric_result=-5.1
molecule=C[N+](C)(C)CCCC[C@@H]1NC(=O)[C@H]2C[C@@H](C(=O)O)[C@@H](c3ccc(O)cc3)N2C1=O numeric_result=-1.28
molecule=CCOC(=O)C[C@H]1[C@H](OC(=O)Cc2ccc3c(c2)OCO3)[C@@H](NC(=O)CC(C)C)c2cc(OCCCO)ccc2N1C(=O)c1ccc2ccccc2n1 numeric_result=-0.943

Need z-score, item CCc1cccc(NC(=O)O[C@H]2[C@H](OC(=O)Nc3ccccc3-c3ccccc3)[C@H](OC(=O)Nc3ccccc3-c3ccccc3)[C@@H](OC)O[C@@H]2CO)c1
1.31

Need z-score, item CCOC(=O)C[C@H]1[C@H](OC(=O)c2ccc(-c3ccccc3)cc2)[C@@H](NC(=O)C2CCCCC2)c2cc(OCCCO)ccc2N1C(=O)Cc1ccc(OC)cc1
-0.0766

====

- Assay Name: binders of probe aHhip on microarray, primary screen, stem cell growth factor project, biochemical, small-molecule microarray, fluorescence 635/667 (AID 1087);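 note: score merges spot fluorescence at 667nm with spot signal to noise ratio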
- Test Conditions: higher = more signal
Measured Endpoint: composite z-score

Worked examples follow.
structure_smiles=COC(=O)[C@]1(Cc2ccccc2CN=[N+]=[N-])N=C(c2ccc(OCCCO)cc2)O[C@@H]1c1ccccc1N=[N+]=[N-] measured_endpoint="composite z-score" result=-0.266
structure_smiles=CC(C)C[C@@H]1NC(=O)[C@@H]2C[C@H](C(=O)NCCCCCCNC(=O)CS)[C@H](c3ccc(O)cc3)N2C1=O measured_endpoint="composite z-score" result=-0.0346
structure_smiles=C=CC[C@]1(C(N)=O)N=C(c2ccc(OCCCO)cc2)O[C@H]1c1ccccc1N=[N+]=[N-] measured_endpoint="composite z-score" result=-0.306

// switching to the query compound
Need composite z-score, item COC(=O)[C@H]1N=C(c2ccc(OCCCO)cc2)O[C@H]1c1ccccc1N=[N+]=[N-]
-0.0994

====

- Assay Name: cell viability in Huh7 cells, primary screen, cytotoxicity control for HCV replication inhibitor project, CellTiter-Glo luminescence, basal, 48 h (AID 1143);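 note: Huh7 hepatoma cells carrying a hepatitis C replication reporter with no stimulus; test concentration not given here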
- Test Conditions: Huh7 HCV replicon, higher = more signal, called active from +8 up or from −8 down
Threshold check on z-score: at or above -0.5 gives 1.0, strictly below gives 0.0.

molecule=CCCCCCc1nc(-c2ccc(OC)nc2)c(C)c2c1[Si](C(C)C)(C(C)C)OC2 assigned_category=0.0
molecule=COCCOC(=O)N1C(=O)[C@@]2(c3cc(C#CCNC(N)=O)ccc31)[C@H](c1ccc(O)cc1)N1[C@H](c3ccccc3)[C@H](c3ccccc3)OC(=O)[C@H]1[C@@H]2C(=O)N1CCc2cc(OC)c(OC)cc2C1 assigned_category=1.0
molecule=C=CCOC(=O)[C@H]1[C@@H]2C(=O)O[C@@H](c3ccccc3)[C@@H](c3ccccc3)N2[C@@H](c2ccc(OCCOC(=O)[C@H]3C[C@H]4C(=O)NCC(=O)N4[C@H]3c3cccc(OCCO)c3)cc2)[C@]12C(=O)Nc1ccc(I)cc12 assigned_category=1.0
molecule="CC1CC/C=C\\[C@H]2OC34C=CCN(C(C)C)C(=O)[C@H]3N(C(C)CO)C(=O)[C@@H]4C2C(=O)O1 (some centres not stated)" assigned_category=1.0
molecule=COc1cc(Cc2cc3c(c(CCc4ccccc4)n2)[Si](C(C)C)(C(C)C)O[C@H]3c2ccccc2)cc(OC)c1OC assigned_category=0.0
molecule=[N-]=[N+]=NCc1ccccc1C[C@]1(C(=O)N2CCCCC2)COC(c2ccc(OCCCO)cc2)=N1 assigned_category=0.0

From here, focus on the item given below.
I'd appreciate it if you could say whether O=C1OCCC/C=C\[C@H]2OC34C=CCN(Cc5ccccc5)C(=O)[C@H]3N(CCO)C(=O)[C@@H]4C12 (some centres not stated) has z-score at least equal to -0.5.
1.0
